Numbers sourced from patent US20140163023A1.

biological target: PI3Kδ (Homo sapiens, UniProt O00329); construct: endogenous in cells; host or cells: Jurkat (ATCC TIB-152, clone E6-1) and Ramos (ATCC CRL-1596), 1:1 lysate mix; assay: kinobeads assay, PI3Kδ; assay type: binding; conditions: 1:1 mix of Jurkat and Ramos cell lysates, read-out: Inhibition values (IC50 in μM) as determined in the kinobeads assay, PI3Kδ
Sequence (O00329 whole entry, one chain of several): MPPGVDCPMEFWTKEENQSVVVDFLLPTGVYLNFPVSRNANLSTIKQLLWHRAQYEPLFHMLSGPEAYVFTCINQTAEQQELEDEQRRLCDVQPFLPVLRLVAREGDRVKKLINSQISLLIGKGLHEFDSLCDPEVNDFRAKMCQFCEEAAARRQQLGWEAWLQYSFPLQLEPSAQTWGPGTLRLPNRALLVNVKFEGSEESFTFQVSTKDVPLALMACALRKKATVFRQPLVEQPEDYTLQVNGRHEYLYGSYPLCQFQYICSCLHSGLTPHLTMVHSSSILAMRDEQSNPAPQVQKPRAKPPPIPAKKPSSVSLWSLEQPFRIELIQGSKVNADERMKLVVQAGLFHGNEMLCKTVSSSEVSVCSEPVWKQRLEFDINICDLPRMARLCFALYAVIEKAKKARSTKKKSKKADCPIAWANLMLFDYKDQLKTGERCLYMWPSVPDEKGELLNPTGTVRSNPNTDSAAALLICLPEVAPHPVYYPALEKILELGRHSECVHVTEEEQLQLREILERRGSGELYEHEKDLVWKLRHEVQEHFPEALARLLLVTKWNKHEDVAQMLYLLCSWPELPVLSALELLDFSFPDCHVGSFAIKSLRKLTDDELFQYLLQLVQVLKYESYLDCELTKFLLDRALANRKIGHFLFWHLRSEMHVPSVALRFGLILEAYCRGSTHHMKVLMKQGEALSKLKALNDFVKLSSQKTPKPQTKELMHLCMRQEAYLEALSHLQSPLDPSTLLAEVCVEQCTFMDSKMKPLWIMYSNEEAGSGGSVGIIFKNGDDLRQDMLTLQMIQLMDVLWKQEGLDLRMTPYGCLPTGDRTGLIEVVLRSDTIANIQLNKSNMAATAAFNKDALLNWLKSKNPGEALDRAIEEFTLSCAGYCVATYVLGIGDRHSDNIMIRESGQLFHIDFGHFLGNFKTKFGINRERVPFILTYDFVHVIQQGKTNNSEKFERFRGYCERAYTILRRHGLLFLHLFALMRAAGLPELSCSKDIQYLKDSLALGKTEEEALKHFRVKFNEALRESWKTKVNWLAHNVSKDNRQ
Entries and their IC50

Examples with answers:
For the molecule CS(=O)(=O)N1Cc2nc(N3CC4CCC(C3)O4)nc(-c3ccc(NC(=O)NC4CC4)cc3)c2C1 , what IC50 is on record?
> 100 µM

For the molecule CCNC(=O)Nc1ccc(-c2nc(N3CCOC[C@@H]3C)nc3c2CN(C(=O)OCC)C3)cc1 , what IC50 is on record?
> 100 µM

For the molecule CCOC(=O)Nc1ccc(-c2nc(N3CCOC[C@@H]3C)nc3c2CNC3)cc1 , what IC50 is on record?
> 100 µM

***
For the molecule C[C@H]1COCCN1c1nc2c(c(-c3ccc(NC(=O)NC4CC4)cc3)n1)CN(C(=O)CCCN(C)C)C2 , what IC50 is on record?
10 to 100 µM

###

biological target: PI3Kβ (Homo sapiens); construct: endogenous in cells; host or cells: Jurkat (ATCC TIB-152, clone E6-1) and Ramos (ATCC CRL-1596), 1:1 lysate mix; experiment: kinobeads assay, PI3Kβ; assay type: binding; details: 1:1 mix of Jurkat and Ramos cell lysates, read-out: Inhibition values (IC50 in μM) as determined in the kinobeads assay, PI3Kβ
Sequence (P42338 whole entry): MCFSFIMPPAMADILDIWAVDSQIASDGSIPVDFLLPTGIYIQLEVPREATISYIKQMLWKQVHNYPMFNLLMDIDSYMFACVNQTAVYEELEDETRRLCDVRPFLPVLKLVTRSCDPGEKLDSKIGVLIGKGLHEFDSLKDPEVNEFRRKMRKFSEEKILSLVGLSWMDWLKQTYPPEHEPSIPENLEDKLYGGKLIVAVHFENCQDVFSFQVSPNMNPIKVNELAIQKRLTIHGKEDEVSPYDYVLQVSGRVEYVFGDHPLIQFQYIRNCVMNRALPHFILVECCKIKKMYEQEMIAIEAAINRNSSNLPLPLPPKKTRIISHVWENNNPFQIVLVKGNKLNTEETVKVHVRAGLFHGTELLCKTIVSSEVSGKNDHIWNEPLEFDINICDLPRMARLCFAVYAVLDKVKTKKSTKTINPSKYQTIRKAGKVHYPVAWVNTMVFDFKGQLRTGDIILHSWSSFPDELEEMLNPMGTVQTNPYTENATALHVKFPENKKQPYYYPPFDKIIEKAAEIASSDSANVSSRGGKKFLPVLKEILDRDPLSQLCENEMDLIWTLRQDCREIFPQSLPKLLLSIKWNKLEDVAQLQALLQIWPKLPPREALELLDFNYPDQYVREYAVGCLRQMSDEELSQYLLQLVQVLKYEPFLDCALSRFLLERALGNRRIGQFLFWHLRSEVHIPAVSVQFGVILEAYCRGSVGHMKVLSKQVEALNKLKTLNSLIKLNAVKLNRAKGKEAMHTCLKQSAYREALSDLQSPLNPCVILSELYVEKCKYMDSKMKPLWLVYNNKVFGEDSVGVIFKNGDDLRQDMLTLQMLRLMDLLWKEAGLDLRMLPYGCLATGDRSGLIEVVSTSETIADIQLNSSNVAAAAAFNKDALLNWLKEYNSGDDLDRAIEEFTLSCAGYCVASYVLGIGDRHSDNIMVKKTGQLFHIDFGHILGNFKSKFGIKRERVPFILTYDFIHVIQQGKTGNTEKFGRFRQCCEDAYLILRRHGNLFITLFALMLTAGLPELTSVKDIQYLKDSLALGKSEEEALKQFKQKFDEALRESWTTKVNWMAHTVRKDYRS
Sequence (P27986 whole entry partner): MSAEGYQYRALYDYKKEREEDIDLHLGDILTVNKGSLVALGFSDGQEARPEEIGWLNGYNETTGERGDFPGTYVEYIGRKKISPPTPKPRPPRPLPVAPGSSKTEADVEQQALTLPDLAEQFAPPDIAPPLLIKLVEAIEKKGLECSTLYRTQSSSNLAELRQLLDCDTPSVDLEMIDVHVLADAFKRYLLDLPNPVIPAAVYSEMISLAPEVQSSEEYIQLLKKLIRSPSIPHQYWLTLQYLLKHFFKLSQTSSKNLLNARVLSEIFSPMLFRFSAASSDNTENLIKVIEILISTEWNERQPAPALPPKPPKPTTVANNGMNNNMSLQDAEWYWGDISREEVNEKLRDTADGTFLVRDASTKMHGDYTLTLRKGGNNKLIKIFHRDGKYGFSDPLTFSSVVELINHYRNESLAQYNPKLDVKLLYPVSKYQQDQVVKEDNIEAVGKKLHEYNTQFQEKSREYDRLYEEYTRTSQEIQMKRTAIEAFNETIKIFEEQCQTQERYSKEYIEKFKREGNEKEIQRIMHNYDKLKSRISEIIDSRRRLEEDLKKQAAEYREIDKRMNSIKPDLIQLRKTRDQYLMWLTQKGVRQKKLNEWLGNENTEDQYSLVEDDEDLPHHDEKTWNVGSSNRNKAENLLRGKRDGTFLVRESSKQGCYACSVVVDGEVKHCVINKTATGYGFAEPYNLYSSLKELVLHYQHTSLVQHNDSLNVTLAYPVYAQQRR
measurement label: IC50

For the molecule CS(=O)(=O)N1Cc2nc(N3CC4CCC(C3)O4)nc(-c3ccc(NC(=O)NC4CC4)cc3)c2C1 , what IC50 is on record?
> 100 µM

For the molecule C[C@H]1COCCN1c1nc2c(c(-c3ccc(NC(=O)NC4CC4)cc3)n1)CN(C(=O)CCN)C2 , what IC50 is on record?
10 to 100 µM

***
For the molecule O=C(Nc1ccc(-c2nc(N3CC4CCC(C3)O4)nc3c2CNC3)cc1)NC1CC1 , what IC50 is on record?
> 100 µM

For the molecule C[C@H]1COCCN1c1nc2c(c(-c3ccc(NC(=O)NC4CC4)cc3)n1)CN(C(=O)CC#N)C2 , what IC50 is on record?
10 to 100 µM

For the molecule CC(C)N1Cc2nc(N3CCOC[C@@H]3C)nc(-c3ccc(NC(=O)NCCO)cc3)c2C1 [Example 34, 2,2,2-trifluoroacetate] , what IC50 is on record?
10 to 100 µM

For the molecule C[C@H]1COCCN1c1nc2c(c(-c3ccc(NC(=O)NC4CC4)cc3)n1)CN(C(=O)CN)C2 , what IC50 is on record?
10 to 100 µM

For the molecule C[C@H]1COCCN1c1nc2c(c(-c3ccc(NC(=O)NC4CC4)cc3)n1)CN(C(=O)C1CCOC1)C2 (stereo partly shown) [Example 40, 2,2,2-trifluoroacetate] , what IC50 is on record?
10 to 100 µM

###

Entries and their IC50
target: PI3Kα (Homo sapiens, UniProt P42336); construct: endogenous in cells; host or cells: Jurkat (ATCC TIB-152, clone E6-1) and Ramos (ATCC CRL-1596), 1:1 lysate mix; test: kinobeads assay, PI3Kα; type: binding; settings: 1:1 mix of Jurkat and Ramos cell lysates, read-out: Inhibition values (IC50 in μM) as determined in the kinobeads assay, PI3Kα
Sequence (P42336 whole entry, one chain of several): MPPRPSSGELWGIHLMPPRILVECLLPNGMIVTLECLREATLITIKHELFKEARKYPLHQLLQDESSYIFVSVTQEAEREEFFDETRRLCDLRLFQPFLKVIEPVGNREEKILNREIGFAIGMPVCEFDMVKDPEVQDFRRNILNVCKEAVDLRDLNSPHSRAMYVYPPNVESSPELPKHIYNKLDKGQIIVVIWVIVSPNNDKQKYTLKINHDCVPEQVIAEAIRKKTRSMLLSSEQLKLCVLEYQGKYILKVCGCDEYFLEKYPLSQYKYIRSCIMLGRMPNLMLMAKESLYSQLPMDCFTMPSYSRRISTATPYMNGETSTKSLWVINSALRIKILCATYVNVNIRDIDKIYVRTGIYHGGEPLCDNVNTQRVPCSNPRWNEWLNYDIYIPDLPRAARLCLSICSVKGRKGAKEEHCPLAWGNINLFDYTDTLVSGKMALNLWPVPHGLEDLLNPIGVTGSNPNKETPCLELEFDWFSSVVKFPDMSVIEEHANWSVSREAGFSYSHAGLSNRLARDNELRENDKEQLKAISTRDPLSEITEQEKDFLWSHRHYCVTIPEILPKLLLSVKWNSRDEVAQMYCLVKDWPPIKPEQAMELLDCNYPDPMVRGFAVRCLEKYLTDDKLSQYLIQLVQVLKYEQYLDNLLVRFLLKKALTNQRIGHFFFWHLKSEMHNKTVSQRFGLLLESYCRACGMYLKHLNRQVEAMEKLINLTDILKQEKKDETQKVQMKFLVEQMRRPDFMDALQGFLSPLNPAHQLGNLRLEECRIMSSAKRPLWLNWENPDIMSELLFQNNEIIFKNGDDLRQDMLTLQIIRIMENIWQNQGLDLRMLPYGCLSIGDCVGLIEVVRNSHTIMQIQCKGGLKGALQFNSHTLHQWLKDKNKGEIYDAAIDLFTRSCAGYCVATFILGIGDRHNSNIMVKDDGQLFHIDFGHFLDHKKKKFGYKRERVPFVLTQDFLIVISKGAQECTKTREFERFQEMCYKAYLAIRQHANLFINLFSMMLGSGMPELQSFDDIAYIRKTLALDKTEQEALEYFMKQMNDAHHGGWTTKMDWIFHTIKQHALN
Where a name gives a salt, the structure may show the parent alone.

For the molecule C[C@@H]1COCCN1c1nc2c(c(-c3ccc(NC(=O)NC4CC4)cc3)n1)CNC2 , what IC50 is on record?
> 100 µM

For the molecule C[C@H]1COCCN1c1nc2c(c(-c3ccc(NC(=O)NC4CC4)cc3)n1)CN(C(N)=O)C2 [Example 42, 2,2,2-trifluoroacetate] , what IC50 is on record?
10 to 100 µM

For the molecule CCNC(=O)Nc1ccc(-c2nc(N3CCOC[C@@H]3C)nc3c2CN(C(C)C)C3)cc1 [Example 46, 2,2,2-trifluoroacetate] , what IC50 is on record?
> 100 µM

For the molecule C[C@H]1COCCN1c1nc2c(c(-c3ccc(NC(=O)NC4CC4)cc3)n1)CN(C1CC1)C2 , what IC50 is on record?
> 100 µM

For the molecule CC(=O)N1Cc2nc(N3CCOC[C@@H]3C)nc(-c3ccc(NC(=O)NC4CC4)cc3)c2C1 , what IC50 is on record?
10 to 100 µM

***
For the molecule NC(=O)Nc1ccc(-c2nc(N3CCOCC3)nc3c2CNC3)cc1 , what IC50 is on record?
1 to 10 µM

For the molecule C[C@H]1COCCN1c1nc2c(c(-c3ccc(NC(=O)NC4CC4)cc3)n1)CN(C(=O)CCN)C2 , what IC50 is on record?
10 to 100 µM

For the molecule C[C@H]1COCCN1c1nc2c(c(-c3ccc(NC(=O)NCCO)cc3)n1)CN(S(C)(=O)=O)C2 , what IC50 is on record?
10 to 100 µM

For the molecule C[C@H]1COCCN1c1nc2c(c(-c3ccc(NC(=O)NC4CC4)cc3)n1)CN(C(=O)CCCN(C)C)C2 , what IC50 is on record?
> 100 µM

For the molecule CCOC(=O)N1Cc2nc(N3CCOC[C@@H]3C)nc(-c3ccc(NC(=O)NC4CC4)cc3)c2C1 , what IC50 is on record?
> 100 µM

For the molecule CCNC(=O)Nc1ccc(-c2nc(N3CCOC[C@@H]3C)nc3c2CN(C(=O)OCC)C3)cc1 , what IC50 is on record?
> 100 µM

For the molecule CCNC(=O)N1Cc2nc(N3CCOC[C@@H]3C)nc(-c3ccc(NC(=O)NCCO)cc3)c2C1 , what IC50 is on record?
1 to 10 µM

For the molecule C[C@H]1COCCN1c1nc2c(c(-c3ccc(NC(=O)NC4CC4)cc3)n1)CN(C(=O)CN1CCOCC1)C2 [Example 47, 2,2,2-trifluoroacetate] , what IC50 is on record?
> 100 µM

For the molecule CCNC(=O)Nc1ccc(-c2nc(N3CCOC[C@@H]3C)nc3c2CNC3)cc1 , what IC50 is on record?
10 to 100 µM

For the molecule O=C(NCCO)Nc1ccc(-c2nc(N3CC4CCC(C3)O4)nc3c2CNC3)cc1 [Example 43, hydrochloride] , what IC50 is on record?
> 100 µM
